# assay-info: Cytotoxicity, CCK-8 cell viability assay in RD cells
# Type: cell-based, human
# experimental-conditions: human
measure-name: CC50 at 48 h (µM)
Your answer is read as µM, so omit the unit and give the number.

Task: Can you share its CC50 at 48 h? I mean this compound: "[N-]=[N+]=N[C@]1(CO)O[C@@H](n2ccc(N)nc2=O)[C@@H](F)[C@@H]1O"
Output: 3.24
